- system-under-test: JNK1α1 (Homo sapiens, UniProt P45983)
- Construct: catalytic domain containing amino acids 1-364 and N-terminal hexahistidine tag; hexahistidine (His6) (N); made in house; host or cells: E. coli BL21 (DE3)
- Sequence (P45983 1-364): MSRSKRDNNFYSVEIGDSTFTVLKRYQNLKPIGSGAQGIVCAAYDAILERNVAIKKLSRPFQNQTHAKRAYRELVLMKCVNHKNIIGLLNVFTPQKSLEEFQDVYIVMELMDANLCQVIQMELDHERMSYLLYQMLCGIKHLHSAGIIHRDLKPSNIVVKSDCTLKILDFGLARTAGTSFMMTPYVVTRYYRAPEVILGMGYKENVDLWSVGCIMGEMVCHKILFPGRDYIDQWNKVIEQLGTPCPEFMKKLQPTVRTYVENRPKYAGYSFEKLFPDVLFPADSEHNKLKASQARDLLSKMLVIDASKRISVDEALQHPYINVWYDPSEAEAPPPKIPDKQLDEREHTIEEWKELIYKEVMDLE
- protocol-summary: Coupled spectrophotometric (PK/LDH) JNK1α1 assay: % inhibition and Ki determination
- Type: biochemical
- experimental-setup: JNK-1
pKi: −log10 of the molar value.
measurement-name: pKi

- compound: "CC(C)C[C@@H](CO)NC(=O)c1ccc2cnc(NC(C)C)nc2c1 [Example 391]"
  measurement-name: "pKi"
  endpoint-value: 6.44
- compound: "O=C(Cc1ccc(Oc2ccnc3ccsc23)cc1)Nc1cc2cc(-c3cn[nH]c3)ccc2cn1 [Example 24]"
  measurement-name: "pKi"
  endpoint-value: 7.60
- compound: "CC(C)C(=O)N[C@H]1CC[C@H](Nc2ncc3cccc(OC4CCOCC4)c3n2)CC1 [Example 181]"
  measurement-name: "pKi"
  endpoint-value: 6.11
- compound: "O=C(NC1(CO)CCCC1)c1ccc2cnc(NC3CCCCC3)nc2c1 [Example 401]"
  measurement-name: "pKi"
  endpoint-value: 6.31
- compound: "CC(=O)N[C@H]1CC[C@H](Nc2ncc3cccc(C(=O)N[C@@H](C)CO)c3n2)CC1 [Example 133]"
  measurement-name: "pKi"
  endpoint-value: 6.68
- compound: "CC(C)Nc1ncc2ccc(C(=O)N[C@H](CO)Cc3ccccc3)cc2n1 [Example 415]"
  measurement-name: "pKi"
  endpoint-value: 5.83
- compound: "O=C(NC(CO)c1ccccc1)c1ccc2cnc(NC3CCC3)nc2c1 (stereo not drawn) [Example 383]"
  measurement-name: "pKi"
  endpoint-value: 6.70
- compound: "O=C(Nc1nccc(O)n1)c1cccc2cnc(N[C@H]3CC[C@H](O)CC3)nc12 [Example 125]"
  measurement-name: "pKi"
  endpoint-value: 6.28
- compound: "O=C(N[C@H](CO)Cc1ccccc1)c1ccc2cnc(NC3CCCCC3)nc2c1 [Example 395]"
  measurement-name: "pKi"
  endpoint-value: 6.37
- compound: "O=C(NCC(O)c1ccc(F)c(F)c1)c1cccc2cnc(N[C@H]3CC[C@H](O)CC3)nc12 (stereo partly drawn) [Example 456]"
  measurement-name: "pKi"
  endpoint-value: 6.60

(1) O[C@H]1CC[C@H](Nc2ncc3ccc(OCC4CCOCC4)cc3n2)CC1 [Example 158]
(2) O=C(Nc1cc2cc(-c3cn[nH]c3)ccc2cn1)[C@H]1C[C@@H]1c1ccccc1 [Example 54]
(3) N#Cc1cc(CNc2cc3cc(-c4cn[nH]c4)ccc3cn2)ccc1F [Example 226]
Prompt: Ranking field: pKi; order: falling. # list labels per requested ordering
Completion: 2, 1, 3
(2: 8.10, 1: 6.70, 3: 5.28)

###

- system-under-test: JNK1α1 (Homo sapiens)
- Construct: catalytic domain containing amino acids 1-364 and N-terminal hexahistidine tag; hexahistidine (His6) (N); made in house; host or cells: E. coli BL21 (DE3)
- protocol-summary: Coupled spectrophotometric (PK/LDH) JNK1α1 assay: % inhibition and Ki determination
- Assay type: biochemical
- experimental-setup: @1 uM; read-out: % Inhibition JNK-1
measurement-name: inhibition at 1 µM (%)

(A) CN1CCC(Oc2ccc3cnc(N[C@H]4CC[C@H](O)CC4)nc3c2)CC1
(B) C[C@@H]([C@H](Oc1ccc2cnc(N[C@H]3CC[C@H](O)CC3)nc2c1)c1ccccc1)N(C)C
Prompt: Between the entries labelled A and B , which has a larger inhibition at 1 µM value on record? Return value: the label identifying the chosen record.
Completion: A
